Hey, just so you know, these numbers are from patent US10894790B2.

method description: Absorbability test: plasma kinetics of compound IA after oral administration
Type: in vivo
test conditions: male, rat, plasma, po, 1 mg/kg, male rats, dose 1 mg/kg, plasma compound IA, read-out: Cmax
reported property: Cmax (ng/mL)
Give just the numeric value; ng/mL need not be written.

IN: Please look up its Cmax: Cc1ccc(C(=O)Nc2nc(-c3ccco3)c(C(=O)C3CCOCC3)s2)cn1
OUT: 1500

====

method description: Absorbability test: plasma kinetics of compound IA after oral administration
Type: in vivo
test conditions: male, rat, plasma, po, 10 mg/kg, male rats, dose 10 mg/kg, plasma compound IA, read-out: tmax
reported property: tmax

IN: I would be grateful if you could share the reported tmax for Cc1ccc(C(=O)Nc2nc(-c3ccco3)c(C(=O)C3CCOCC3)s2)cn1 .
OUT: 2 h

====

method description: Absorbability test: plasma kinetics of compound IA after oral administration
Type: in vivo
test conditions: male, rat, plasma, po, 1 mg/kg, male rats, plasma compound IA
reported property: half-life (h)
Your answer is read as h, so omit the unit and give the number.

IN: Which half-life reading was recorded for the molecule Cc1ccc(C(=O)Nc2nc(-c3ccco3)c(C(=O)C3CCOCC3)s2)cn1 [HA crystal] ?
OUT: 2.08

====

method description: Absorbability test: plasma kinetics of compound IA after oral administration
Type: in vivo
test conditions: male, rat, plasma, po, 10 mg/kg, male rats, plasma compound IA
reported property: AUC(0-inf)
Give me the value, and tack the unit on after it.

IN: // lookup AUC(0-inf) for Cc1ccc(C(=O)Nc2nc(-c3ccco3)c(C(=O)C3CCOCC3)s2)cn1
OUT: 56600 ng·h/mL

====

method description: Absorbability test: plasma kinetics of compound IA after oral administration
Assay type: in vivo
test conditions: male, rat, plasma, po, 10 mg/kg, male rats, dose 10 mg/kg, plasma compound IA, read-out: Cmax
reported property: Cmax (ng/mL)
Write the number in ng/mL without appending the unit.

IN: Bench note: what Cmax did Cc1ccc(C(=O)Nc2nc(-c3ccco3)c(C(=O)C3CCOCC3)s2)cn1 [HA crystal] show?
OUT: 10900
